Assay: Luciferase activity of purified RLuc mutants (light output integrated over 10 s, luminometer)
Format: biochemical
Conditions: benzyl-coelenterazine; relative to native enzyme

{"Molecule": "A54G/A55G/C124A: RLuc mutant A54G/A55G/C124A (protein) MASKVYDPEQRKRMITGPQWWARCKQMNVLDSFINYYDSEKHAENAVIFLHGNGGSSYLWRHVVPHIEPVARCIIPDLIGMGKSGKSGNGSYRLLDHYKYLTAWFELLNLPKKIIFVGHDWGAALAFHYSYEHQDKIKAIVHAESVVDVIESWDEWPDIEEDIALIKSEEGEKMVLENNFFVETMLPSKIMRKLEPEEFAAYLEPFKEKGEVRRPTLSWPREIPLVKGGKPDVVQIVRNYNAYLRASDDLPKMFIESDPGFFSNAIVEGAKKFPNTEFVKVKGLHFSQEDAPDEMGKYIKSFVERVLKNEQ", "Activity (relative to RLuc) bc": 0.10}
